molecular target: plasma kallikrein (PKa) (Homo sapiens, UniProt P03952); construct: purchased R & D 2497-SE; assay: Inhibitory activity against plasma kallikrein in vitro (fluorescence intensity enzyme assay, Pro-Phe-Arg-AMC substrate); assay type: biochemical; details: plasma kallikrein enzyme assay, Pro-Phe-Arg-AMC substrate; read-out: PKa IC50
Sequence (P03952 391-638 limits assumed): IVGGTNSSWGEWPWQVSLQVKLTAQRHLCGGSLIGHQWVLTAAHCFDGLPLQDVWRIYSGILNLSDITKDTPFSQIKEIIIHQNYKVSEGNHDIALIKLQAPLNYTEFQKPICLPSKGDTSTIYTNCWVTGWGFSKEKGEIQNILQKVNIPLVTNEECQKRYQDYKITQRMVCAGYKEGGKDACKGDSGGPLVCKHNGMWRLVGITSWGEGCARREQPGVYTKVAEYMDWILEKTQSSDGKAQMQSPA
Sequence (P03952 20-390 partner limits assumed): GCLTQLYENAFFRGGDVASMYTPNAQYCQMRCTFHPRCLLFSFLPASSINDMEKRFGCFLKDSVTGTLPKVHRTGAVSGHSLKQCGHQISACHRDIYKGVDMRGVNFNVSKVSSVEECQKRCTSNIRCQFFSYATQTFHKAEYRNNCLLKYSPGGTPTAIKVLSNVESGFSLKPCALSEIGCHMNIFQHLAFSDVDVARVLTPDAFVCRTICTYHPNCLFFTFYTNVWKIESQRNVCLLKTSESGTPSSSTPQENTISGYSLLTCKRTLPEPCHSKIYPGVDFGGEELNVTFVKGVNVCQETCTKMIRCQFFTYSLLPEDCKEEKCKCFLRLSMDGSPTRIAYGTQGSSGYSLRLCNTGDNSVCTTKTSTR
Labelling: IC50 reported below 20 nM becomes Criterion met; at or above becomes Criterion not met.

Inquiry: Find out if reported IC50 for Nc1cc2c(cn1)[C@@H](NC(=O)c1ncn(Cc3cn4cc(C5CC5)ccc4n3)n1)CC2 is less than 20 nM
Reply text: Criterion not met

Inquiry: Please check: IC50 for Cn1ccc2c(CNC(=O)c3cn(Cc4ccc(Cn5ccccc5=O)cc4)nc3C3COC3)nccc21 , strictly under 20 nM or not?
Reply text: Criterion met

Inquiry: Is the reported IC50 for Cc1cc(N)nc(C)c1CNC(=O)c1ncn(Cc2ccc(-n3ccccc3=O)cc2)n1 strictly below 20 nM?
Reply text: Criterion met

Inquiry: Identify whether the compound COc1ccc(Cl)c(CNC(=O)c2cn(Cc3ccc(Cn4ccccc4=O)cc3)nc2N2CC(F)(F)C2)c1F records IC50 below 20 nM.
Reply text: Criterion met

Inquiry: Bench note: check whether COc1ccc(C#N)c(CNC(=O)c2cnn(Cc3ccc(Cn4ccccc4=O)cc3)c2)c1C shows IC50 below 20 nM
Reply text: Criterion not met

Inquiry: Lab note: IC50 threshold 20 nM. Does this compound come in strictly under it? COCc1nn(Cc2ccc3ncc(Cl)cc3c2)cc1C(=O)NCc1c(C)cc(N)nc1C
Reply text: Criterion met

Inquiry: hey, is IC50 for Cc1nc(N)nc(C)c1CNC(=O)c1ncn(Cc2ccc(Cn3cc(F)ccc3=O)cc2)n1 lower than 20 nM or not?
Reply text: Criterion not met

Inquiry: Does this compound meet the criterion IC50 < 20 nM? Nc1nnc(CNC(=O)c2cnn(Cc3ccc(Cn4ccccc4=O)cc3)c2)s1
Reply text: Criterion not met

Inquiry: Identify whether the compound Cc1cc(N)nc(C)c1CNC(=O)c1cn(Cc2ccc(Cn3ccccc3=O)cc2)nc1C(F)(F)F records IC50 below 20 nM.
Reply text: Criterion met

Inquiry: API: query returns whether the compound falls strictly under 20 nM in IC50. Query: COc1ccnc(CNC(=O)c2cn(Cc3ccc(Cn4ccccc4=O)cc3)nc2CN2C(=O)CC(C)(C)CC2=O)c1F
Reply text: Criterion met

Inquiry: For COCc1nn(Cc2ccc(N3CC4C(C3)C4(F)F)cc2C#N)cc1C(=O)NCc1nc2c(s1)CNCC2 (stereo not shown) , is the recorded IC50 below the cut-off of 20 nM?
Reply text: Criterion not met

Inquiry: Given the entry Nc1cc2c(cn1)C(NC(=O)c1ncn(Cc3c(F)c(F)c(Cn4ccccc4=O)c(F)c3F)n1)CC2 (stereo not shown) , would its reported IC50 be below 20 nM?
Reply text: Criterion not met

Inquiry: Does Cc1cc(N)nc(C)c1CNC(=O)c1cn(Cc2ccc(Cn3ccccc3=O)cc2)nc1C(F)F have IC50 strictly under 20 nM?
Reply text: Criterion met

Inquiry: I wonder whether COCc1nn(Cc2ccc(CN3CCCCCC3)cc2)cc1C(=O)NCc1nccc(OC)c1F has IC50 below 20 nM. Can you tell?
Reply text: Criterion not met

Inquiry: Is 20 nM strictly greater than the compound's reported IC50? compound: COc1ccc(Cl)c(CNC(=O)c2cn(Cc3ccc(Cn4ccccc4=O)cc3)nc2COCC2(F)COC2)c1F
Reply text: Criterion met

* * *

target: plasma kallikrein (PKa) (Homo sapiens, UniProt P03952); construct: purchased R & D 2497-SE; test: Inhibitory activity against plasma kallikrein in vitro (fluorescence intensity enzyme assay, Pro-Phe-Arg-AMC substrate); assay type: biochemical; conditions: plasma kallikrein enzyme assay, Pro-Phe-Arg-AMC substrate; read-out: PKa IC50
# thresholds on IC50 define classes: bin 0 = under 0.8 nM, bin 1 = from 0.8 nM up to 3 nM, bin 2 = 3 nM and over

Inquiry: // bin(item) where item = N=C(N)c1ccc(CNC(=O)c2cnn(Cc3c(Cl)cc(OCC4CC4)cc3Cl)c2)cc1 [Compound 359]
Reply text: bin 2

Inquiry: Dear colleague, I would appreciate it if you could identify the bin for COc1cc(Cn2cc(C(=O)NCc3ccc(C(=N)N)cc3)cn2)cc(OC)c1CC1CC1 [Compound 375] and reply at your convenience.
Reply text: bin 1

Inquiry: Field: class (IC50) — entry: Cc1cc(N)nc(C)c1CNC(=O)c1ccn(Cc2ccc(Cn3cccc(C)c3=O)cc2)n1 [Compound 75]
Reply text: bin 0

Inquiry: Lab note: sort O=C(NCc1nccc(NC2CCC2)c1F)c1cn(Cc2ccc(Cn3ccccc3=O)cc2)nc1N1CC(F)(F)C1 [Compound 278] into the matching IC50 band.
Reply text: bin 2

Inquiry: Band for the recorded IC50 of N#Cc1cc(N2CC3C(C2)C3(F)F)ccc1Cn1cnc(C(=O)NCc2ccc3c(N)nccc3c2)n1 (stereo not shown) [Compound 43] ?
Reply text: bin 1

Inquiry: Band assignment needed for N=C(N)c1ccc(CNC(=O)c2cnn(Cc3c(F)cc(N4CC5C(C4)C5(F)F)cc3F)c2)cc1 (stereo not shown) [Compound 368] please.
Reply text: bin 0

Inquiry: Bin? COc1ccc(F)c(CNC(=O)c2cn(Cc3ccc(Cn4ccccc4=O)cc3)nc2C2(OC)CCC2)c1F [Compound 258]
Reply text: bin 2

Inquiry: Class label required: COCc1cn(Cc2ccc(Cn3ccccc3=O)cc2)nc1C(=O)N[C@@H]1CCc2c1ncn2C [Compound 59]
Reply text: bin 2

Inquiry: Class label required: COc1ccnc(CNC(=O)c2cn(Cc3ccc(CN4CC(F)(F)C4)cc3)nc2C(F)(F)F)c1F [Compound 124]
Reply text: bin 2

Inquiry: Which class holds O=C(NCc1nccc(C2CC2)c1F)c1cn(Cc2ccc(Cn3ccccc3=O)cc2)nc1C1COC1 [Compound 339] ?
Reply text: bin 2

Inquiry: Which class does COCc1nn(Cc2ccc(CN3CC(F)(F)C3)cc2)cc1C(=O)NCc1nccc(OC)c1F [Compound 103] fall in?
Reply text: bin 2

Inquiry: Which IC50 band matches N#Cc1cc(N2CC3C(C2)C3(F)F)ccc1Cn1cc(C(=O)NCc2ccc(C(=N)N)cc2)cn1 (stereo not shown) [Compound 8] ?
Reply text: bin 1

Inquiry: Sort into band: Cc1cc2nccn2c(C)c1CNC(=O)c1nc(Cc2ccc(Cn3ccccc3=O)cc2)ns1 [Compound 137]
Reply text: bin 1

* * *

molecular target: plasma kallikrein (PKa) (Homo sapiens); construct: purchased R & D 2497-SE; assay: Inhibitory activity against plasma kallikrein in vitro (fluorescence intensity enzyme assay, Pro-Phe-Arg-AMC substrate); format: biochemical; conditions: read-out: PKa IC50
property: pIC50
Units for pIC50: none; it is -log10 of a concentration expressed in mol/L.

Inquiry: Any idea what its pIC50 is? The compound is Cc1cc(N)nc(C)c1CNC(=O)c1cnn(Cc2ccc(N3CC4C(C3)C4(F)F)cc2C#N)c1 (stereo not shown) [Compound 20]
Reply text: 9.81

* * *

molecular target: plasma kallikrein (PKa) (Homo sapiens, UniProt P03952); construct: purchased R & D 2497-SE; assay: Inhibitory activity against plasma kallikrein in vitro (fluorescence intensity enzyme assay, Pro-Phe-Arg-AMC substrate); assay type: biochemical; settings: plasma kallikrein enzyme assay, Pro-Phe-Arg-AMC substrate; read-out: PKa IC50
Please go through the items and note down their pIC50.
Keep it numeric: pIC50 is minus log10 of the concentration in mol/L.

Inquiry: Entry O=C(NCc1ncc2c(c1F)NCC2)c1cn(Cc2ccc(Cn3ccccc3=O)cc2)nc1C(F)(F)F [Compound 390] : reported pIC50 = ?
Reply text: 8.69

Inquiry: Item Cc1cc(N)nc(C)c1CNC(=O)c1csc(Cc2ccc(Cn3ccccc3=O)cc2)n1 [Compound 68] has what recorded pIC50?
Reply text: 9.49

Inquiry: Any idea what its pIC50 is? The molecule is O=C(NCc1cc2ccncc2[nH]1)c1nc(Cc2ccc(Cn3ccccc3=O)cc2)ns1 [Compound 177]
Reply text: 7.76

* * *

biological target: plasma kallikrein (PKa) (Homo sapiens); construct: purchased R & D 2497-SE; assay: Inhibitory activity against plasma kallikrein in vitro (fluorescence intensity enzyme assay, Pro-Phe-Arg-AMC substrate); assay type: biochemical; details: PKa IC50, plasma kallikrein enzyme assay, Pro-Phe-Arg-AMC substrate
Response field class: enum, chosen by comparing IC50 against bin 1: < 1 nM; bin 2: ≥ 1 nM and < 7 nM; bin 3: ≥ 7 nM

Inquiry: Band for O=C(NCc1ncc2c(n1)CNC2)c1cn(Cc2ccc(Cn3ccccc3=O)cc2)nc1C(F)(F)F ?
Reply text: bin 3

Inquiry: Using the reported IC50, which band applies to COCc1nn(Cc2ccc(Cn3ccccc3=O)cc2)cc1C(=O)NCc1nccc(SC)c1F ?
Reply text: bin 3

Inquiry: Place this molecule in its band: N=C(N)c1ccc(CNC(=O)c2cnn(Cc3ccc(OC4CC4)c(C(F)(F)F)c3)c2)cc1
Reply text: bin 1

Inquiry: Band for Cc1cc(N)nc(C)c1CNC(=O)c1cc(Cc2ccc(Cn3ccccc3=O)cc2)ccn1 ?
Reply text: bin 1

Inquiry: Band for the recorded IC50 of COCC1(F)CN(Cc2nn(Cc3ccc(Cn4ccccc4=O)cc3)cc2C(=O)NCc2nccc(OC)c2F)C1 ?
Reply text: bin 3

Inquiry: Any idea which band COCc1nn(Cc2ccc(Cn3ccccc3=O)cc2)cc1C(=O)NCc1c(C)cn2cncc2c1C is in?
Reply text: bin 2

Inquiry: Into which category would you place N/C(=N\O)c1ccc(CNC(=O)c2cnn(Cc3ccc(CC4CC4)cc3)c2)cc1 ?
Reply text: bin 2

Inquiry: Into which bin does this molecule go? CN1CCc2cnc(CNC(=O)c3cnn(Cc4ccc(Cn5ccccc5=O)cc4)c3)c(F)c21
Reply text: bin 2

Inquiry: Kindly identify the class of COc1ccnc(CNC(=O)c2cn(Cc3ccc(Cn4ccccc4=O)cc3)nc2N2CC(C)(O)C2)c1F .
Reply text: bin 2

Inquiry: Hey, which category is COCc1nn(Cc2ccc(Cn3ccccc3=O)cc2)cc1C(=O)NCc1ncc2c(n1)CNC2 in, do you know?
Reply text: bin 3

Inquiry: Field: class (IC50) — entry: N=C(N)c1ccc(CNC(=O)c2cnn(Cc3ccc(Oc4ccccc4)cc3)c2)cc1
Reply text: bin 1

Just for reference, patent EP4737450A1 is where these values come from.
